Source of measurements: patent US20040224958A1

# Target Or System: cdk2/cyclinA (Homo sapiens)
# Procedure Details: Cyclin-Dependent Kinase Assay cdk2/cyclinA
# Cond: cdk2/A IC50
// returns rule not met unless IC50 is strictly below 400 nM, in which case rule met

*Q* Dear reviewer, please state whether `NS(=O)(=O)c1cccc(Nc2ncc3ccc(=O)n(C4CCCC4)c3n2)c1` has IC50 strictly beneath 400 nM.
*A* rule not met

*Q* Dear reviewer, please state whether `O=c1ccc2cnc(Nc3cc(F)c(F)c(F)c3)nc2n1CC1CC1` has IC50 strictly beneath 400 nM.
*A* rule not met

*Q* Dear reviewer, please state whether `Cc1cc(Nc2ncc3ccc(=O)n(C4CCCC4)c3n2)cc(C)c1O` has IC50 strictly beneath 400 nM.
*A* rule met

*Q* Dear reviewer, please state whether CCC(C)n1c(=O)ccc2cnc(Nc3ccc4[nH]ncc4c3)nc21 (stereo not shown) has IC50 strictly beneath 400 nM.
*A* rule met

*Q* Dear reviewer, please state whether `CCCn1c(=O)ccc2cnc(Nc3ccc(F)c(F)c3)nc21` has IC50 strictly beneath 400 nM.
*A* rule met

*Q* Dear reviewer, please state whether `CCCCn1c(=O)ccc2cnc(Nc3ccc(F)c(C)c3)nc21` has IC50 strictly beneath 400 nM.
*A* rule met

*Q* Dear reviewer, please state whether `Cc1cc(Nc2ncc3ccc(=O)n(C(C)C)c3n2)cc(C)c1O` has IC50 strictly beneath 400 nM.
*A* rule met

*Q* Dear reviewer, please state whether `CCCCn1c(=O)ccc2cnc(Nc3cc([N+](=O)[O-])ccc3F)nc21` has IC50 strictly beneath 400 nM.
*A* rule not met

*Q* Dear reviewer, please state whether `CCn1c(=O)ccc2cnc(Nc3ccc(C#N)cc3)nc21` has IC50 strictly beneath 400 nM.
*A* rule not met

*Q* Dear reviewer, please state whether `CC(=O)Nc1cc(Nc2ncc3ccc(=O)n(C(C)C)c3n2)ccc1C` has IC50 strictly beneath 400 nM.
*A* rule not met

*Q* Dear reviewer, please state whether `CCCn1c(=O)ccc2cnc(Nc3ccc(F)c(Cl)c3)nc21` has IC50 strictly beneath 400 nM.
*A* rule met

*Q* Dear reviewer, please state whether `O=c1ccc2cnc(Nc3ccc4[nH]nnc4c3)nc2n1C1CCCC1` has IC50 strictly beneath 400 nM.
*A* rule met

*Q* Dear reviewer, please state whether `O=c1ccc2cnc(Nc3ccc(Br)c(C(F)(F)F)c3)nc2n1CC1CC1` has IC50 strictly beneath 400 nM.
*A* rule not met

*Q* Dear reviewer, please state whether `CCC(CC)n1c(=O)ccc2cnc(Nc3ccc(NC(C)=O)c(C)c3)nc21` has IC50 strictly beneath 400 nM.
*A* rule not met

*Q* Dear reviewer, please state whether `CCCn1c(=O)ccc2cnc(Nc3cccc(S(N)(=O)=O)c3)nc21` has IC50 strictly beneath 400 nM.
*A* rule met

*Q* Dear reviewer, please state whether `CCCn1c(=O)ccc2cnc(Nc3ccc(F)c(C)c3)nc21` has IC50 strictly beneath 400 nM.
*A* rule met

*Q* Dear reviewer, please state whether `Cc1cc(Nc2ncc3ccc(=O)n(C(C)C)c3n2)ccc1Br` has IC50 strictly beneath 400 nM.
*A* rule not met

*Q* Dear reviewer, please state whether `CCn1c(=O)ccc2cnc(Nc3ccc4[nH]ccc4c3)nc21` has IC50 strictly beneath 400 nM.
*A* rule not met

*Q* Dear reviewer, please state whether `CCC(CC)n1c(=O)ccc2cnc(Nc3ccc4[nH]ccc4c3)nc21` has IC50 strictly beneath 400 nM.
*A* rule not met

*Q* Dear reviewer, please state whether `CC(=O)Nc1c(F)cc(Nc2ncc3ccc(=O)n(CC4CC4)c3n2)cc1Cl` has IC50 strictly beneath 400 nM.
*A* rule not met
